Where do these numbers come from? They come from the supplement of paper PMC10266784.

B1: library; numbered along this chain (parent)
chain: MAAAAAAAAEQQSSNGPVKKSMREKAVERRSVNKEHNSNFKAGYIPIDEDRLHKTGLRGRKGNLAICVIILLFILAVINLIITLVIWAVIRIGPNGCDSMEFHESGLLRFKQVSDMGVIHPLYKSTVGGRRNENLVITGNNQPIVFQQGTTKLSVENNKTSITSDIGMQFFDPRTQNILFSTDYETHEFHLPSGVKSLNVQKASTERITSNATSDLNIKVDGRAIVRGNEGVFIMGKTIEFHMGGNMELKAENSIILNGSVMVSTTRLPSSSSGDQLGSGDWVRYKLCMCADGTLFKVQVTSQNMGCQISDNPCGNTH

variants of: B1; test: SGCB cell-surface expression functional score (HA stain, bin4 vs bin1, normalised to synonymous) (log10 ratio); higher = more cell-surface SGCB (functional)
RESULT TYPE: SGCB cell-surface expression functional score (log10)
Lab note: write the figure by itself, no unit.

- MUTATION LABEL: "G259E"
  MEASURED NUMBER: -1.29

Input Q276V . Output SGCB cell-surface expression functional score (log10): -0.56

Input Y44S . Output SGCB cell-surface expression functional score (log10): 0.14

Input D172W . Output SGCB cell-surface expression functional score (log10): -0.88
